// provenance: the RNAGym collection of RNA variant scans (doi:10.7554/elife.90254)

B1: LINE1-mini (parent)
chain: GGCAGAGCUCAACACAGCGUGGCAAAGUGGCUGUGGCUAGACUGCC

Variants of: B1
test_summary: self-cleavage, relative activity (ratio to wild type); higher = more cleavage; in vitro, sequencing; the parent is a self-cleaving ribozyme
property_name: self-cleavage

{"columns": ["residue_string", "recorded_number"],
 "data": [
  ["GGCAGAGCUCAACACAGCGUGGCAAAGAGGCUGUGGCUGGACUGCC [U28A A39G]", 0.05],
  ["UGCAGACCUCAACACAGCGUGGCAAAGUGGCUGUGGCUAGACUGCC [G1U G7C]", 0.12],
  ["GGCAGAGCUCAACACGGCGUGGCAAAAUGGCUGUGGCUAGACUGCC [A16G G27A]", 0.78],
  ["GGCAGAGCUCAACGCAGUGUGGCAAAGUGGCUGUGGCUAGACUGCC [A14G C18U]", 0.42],
  ["GGCAGAGCUCAACACAGCGUGGGAAAGUGGCUGUGGUUAGACUGCC [C23G C37U]", 0.02],
  ["GGCAGAGCGCAACACAGCGUGGCAAAGUGGCUGUCGCUAGACUGCC [U9G G35C]", 0.03],
  ["GGCAGAGCUCAACACAGCGUGUCAAAGUGGCUGUGGCUAGACAGCC [G22U U43A]", 0.06],
  ["GGCAGAGCUCAACACAGCCUGGCAAAGUGGAUGUGGCUAGACUGCC [G19C C31A]", 0.63],
  ["GGCAUAGCUCAACACAGCGUGGCAAAGUGGCUGUGGCUAGUCUGCC [G5U A41U]", 0.08],
  ["GGCAGAGCUCAACACAGCCUGGCAAAUUGGCUGUGGCUAGACUGCC [G19C G27U]", 0.43],
  ["GGCAGAGCUCAACACAACGUGGCAAAGUGGCUGUGGCUAGACUGCU [G17A C46U]", 0.15],
  ["GGCAGAGCACAACACAGCGUGGCAAAGUAGCUGUGGCUAGACUGCC [U9A G29A]", 0.2],
  ["GGCAGAGCUCAACACAGCGUGGCAAAGUGGCUGUGGCUAGAGCGCC [C42G U43C]", 0.03],
  ["GCCAGAGCUCAACACAGCGUGGCAAAGUGGCUGUGGCUAGACUUCC [G2C G44U]", 0.14],
  ["GGCAGAUCUCAACACAGCGUGGCAAAGAGGCUGUGGCUAGACUGCC [G7U U28A]", 0.03],
  ["GGCAGAGCUCAACACAGCGUGGCAAAGUAGCUGUAGCUAGACUGCC [G29A G35A]", 0.23],
  ["GGCAGAGCUCAACACAGCGUGGCAAAGUGGCUUUGGCGAGACUGCC [G33U U38G]", 0.04],
  ["GGCAGAGCUCAACACAGCGUGUCAAAGUGGCAGUGGCUAGACUGCC [G22U U32A]", 0.13],
  ["GGCAGACCUCAACAAAGCGUGGCAAAGUGGCUGUGGCUAGACUGCC [G7C C15A]", 0.14],
  ["GGCAGAGCUCAACACGGCGUUGCAAAGUGGCUGUGGCUAGACUGCC [A16G G21U]", 0.48],
  ["GGCAGAGCUCAACACAGCGUGGCAAAGUGGCUUUGGCUAGAAUGCC [G33U C42A]", 0.13],
  ["GGCAGCGCUCAAUACAGCGUGGCAAAGUGGCUGUGGCUAGACUGCC [A6C C13U]", 0.14],
  ["GGCAGAGCUCAAGACAGCGUGGCAAAGUUGCUGUGGCUAGACUGCC [C13G G29U]", 0.33],
  ["GGCUGAGCUCAACCCAGCGUGGCAAAGUGGCUGUGGCUAGACUGCC [A4U A14C]", 0.12],
  ["AGCCGAGCUCAACACAGCGUGGCAAAGUGGCUGUGGCUAGACUGCC [G1A A4C]", 0.08],
  ["GGCAGCGCUCAACACAGCGUGGCAAAGUAGCUGUGGCUAGACUGCC [A6C G29A]", 0.7],
  ["GGCAGAGCUCAACACAGCGUGGCAGAGUGGCUAUGGCUAGACUGCC [A25G G33A]", 0.04],
  ["GGCAGAGCUCAACACAGCGUGGCAAAGUGGCGGUGGCUAGUCUGCC [U32G A41U]", 0.07],
  ["GGCAGAGCUCAACACAGCGUGGCAAAGUGGGUGUGGCAAGACUGCC [C31G U38A]", 0.09],
  ["GACAGAGCUCAACACAGCGUGGGAAAGUGGCUGUGGCUAGACUGCC [G2A C23G]", 0.4],
  ["GGCAGAACUCAACACAGCGUGGCAAAGUGGCUGUGGCUAGACAGCC [G7A U43A]", 0.15],
  ["GGCAGAGCUCAACACAGCGUGGCAAAGUUGCUGUGGCUAGACUUCC [G29U G44U]", 0.31],
  ["GGCAGAGCUCAACACAGCGUGGAAAAGUGGCUGUGGCUAGACUGUC [C23A C45U]", 1.97],
  ["GGCAGAGCUCAACAGAGCGUGGCAAAGUGGCUGUGGCUAGGCUGCC [C15G A41G]", 0.04],
  ["GUCAGAGUUCAACACAGCGUGGCAAAGUGGCUGUGGCUAGACUGCC [G2U C8U]", 0.1],
  ["GGCAGAGCUCAACACAGCGUUGCAAAGUGGCUGCGGCUAGACUGCC [G21U U34C]", 0.27],
  ["GGCCGAGCUCAACACAGCGUGGCAAAGUGGCUGUGGCUAGACUUCC [A4C G44U]", 0.13],
  ["GGCAGAGCUUAACCCAGCGUGGCAAAGUGGCUGUGGCUAGACUGCC [C10U A14C]", 0.05],
  ["GGCAGAGCUCCACACAGCGUGGCAAAGUGGCUGUGGCUAGACUGAC [A11C C45A]", 0.05],
  ["GGCAGAGCUCAACACAGCGUGGCAAAGUGGCUGUGGCUAGACUCCU [G44C C46U]", 0.14],
  ["GGCAGAGCUCAACACAGCGUCGCAAAGUGGCUGUGGCUAGACUGAC [G21C C45A]", 0.49],
  ["GGCAGAGGUCAACACAGCGUGACAAAGUGGCUGUGGCUAGACUGCC [C8G G22A]", 0.1],
  ["GGCAGAGCUCAACACAGCGUGGUAAAGUGGCUGUAGCUAGACUGCC [C23U G35A]", 0.19],
  ["GGCAGAGCUCAACACAGCGUGGCGAAAUGGCUGUGGCUAGACUGCC [A24G G27A]", 0.98],
  ["GGCAGAGCUCAACACAGCGUGGCAAAGUCGCUGUGGCUAGAUUGCC [G29C C42U]", 0.22],
  ["GGAAGAGCUCAACACAGCGUGGCAAAGUGGCUGUGGCAAGACUGCC [C3A U38A]", 0.34],
  ["GGCAGAGCUCAACACAGCGUGGCAAAGUGGCUGUGUCUAGACUCCC [G36U G44C]", 0.08],
  ["GGCAGAGCUCAACACAGUGUGGCAAAGUGGCUGUGGCUCGACUGCC [C18U A39C]", 0.16],
  ["GGCAGAGCUCAACACAGAGUGGCAAAGUGGCUGUGGCUAGACCGCC [C18A U43C]", 0.05],
  ["GGCAGAGCUCAACACAGCGUGGCAAAGUGGUUGUGGCAAGACUGCC [C31U U38A]", 0.2]
]}
